Reported Percent Effect values for the following molecules.
Tested on: Plasmodium falciparum
test summary: Plasmodium falciparum sporozoite viability assay; further: in the data most compounds retested in dose-response had high values
Type: functional, organism-based
About 290 (0.85%) of roughly 34,000 compounds showed an effect of 50% or more. Only a selection was taken, and strong results are over-represented in it overall.
Respond numerically; units are % and should not be typed.

Recorded Percent Effect, per entry:
molecule | measurement
Cl.Cn1cc([C@@H]2CN(S(=O)(=O)c3cccs3)C[C@H]2N)c2ccncc21 | -0.5895
O=C1CCCN1CC1CCCCN1C(=O)Nc1cccnc1 (stereo unspecified) | 7.898

-- ask Please report the recorded Percent Effect for Cc1ccccc1CCNC(=O)CN1CCCC(Cn2cncn2)C1 (stereo unspecified) .
-- reply 7.953

-- ask Lookup `O=C(Nc1cccnc1)[C@H]1C[C@H]2OCC[C@H]2N(C(=O)c2ccsc2)C1.O=C(O)C(F)(F)F`
-- reply -9.732

-- ask Lookup COCCc1noc(CN2CCCC2Cn2nc(C)nc2C)n1 (stereo unspecified)
-- reply 16.37

-- ask Lookup `CCc1ccc(C(=O)O)cc1S(=O)(=O)Nc1ccc(F)c(C#N)c1`
-- reply 9.76
